# Tested on: HepG2
# Assay notes: cell viability relative to DMSO; higher = less toxic
# Setup conditions: 72 h; 10000 nM
Observable: cell viability (%)
Lab book: enter the figure in %, no units written.

Entry `CCCCC[C@H](O)/C=C/[C@H]1[C@H](O)CC(=O)[C@@H]1C/C=C\CCCC(=O)O` ; cell viability = 99

Entry `COc1ccc(-c2cnc3c(-c4cccc5ncccc45)cnn3c2)cc1` ; cell viability = 97.2

Entry Cc1c(C)c2c(c(C)c1O)CCC(C)(COc1ccc(CC3SC(=O)NC3=O)cc1)O2 (centres undefined) ; cell viability = 98.5

Entry `CCOC(=O)Nc1ccc(NCc2ccc(F)cc2)nc1N` ; cell viability = 99.8

Entry CC(=O)/N=c1/sc(S(N)(=O)=O)nn1C [methazolamide] ; cell viability = 102

Entry `C[C@@H]1NC(=O)[C@@H](N)CNC(=O)[C@H](C2CCNC(=N)N2)NC(=O)/C(=C/NC(N)=O)NC(=O)[C@H](CNC(=O)CC(N)CCCN)NC1=O.N=C1NCC[C@H]([C@@H]2NC(=O)/C(=C/NC(N)=O)NC(=O)[C@H](CNC(=O)C[C@@H](N)CCCN)NC(=O)[C@H](CO)NC(=O)[C@@H](N)CNC2=O)N1` ; cell viability = 99.1

Entry `CN(Cc1cc(Br)cc(Br)c1N)C1CCCCC1` ; cell viability = 108

Entry `Nc1nc2[nH]cc(CCc3ccc(C(=O)N[C@@H](CCC(=O)O)C(=O)O)cc3)c2c(=O)[nH]1` ; cell viability = 20.1

Entry Nc1ncnc2c1ncn2[C@@H]1O[C@H](CO)C[C@H]1O [cordycepin] ; cell viability = 114

Entry Cc1ncc([N+](=O)[O-])n1CC(O)CN1CCOCC1 (centres undefined) ; cell viability = 102

Entry `CC(=O)Nc1ccc(C(=O)Nc2ccccc2N)cc1` ; cell viability = 40.8

Entry `O=C(Nc1ccncc1)c1cc([N+](=O)[O-])ccc1Cl` ; cell viability = 99.4

Entry `Cc1c(O)c(=O)ccn1C` ; cell viability = 101

Entry `CNC(=O)N(C)N=O` ; cell viability = 97.7

Entry `CCNC(=O)c1n[nH]c(-c2cc(Cl)c(O)cc2O)c1-c1ccc(OC)cc1` ; cell viability = 2

Entry `CN1CC[C@@H]2CN3CCc4cccc(c43)[C@@H]2C1` ; cell viability = 110

Entry C=CCSCC1Nc2cc(Cl)c(S(N)(=O)=O)cc2S(=O)(=O)N1 (centres undefined) [althiazide] ; cell viability = 107

Entry Nc1ncnc2c1ncn2[C@@H]1O[C@H](COP(=O)(O)O)[C@@H](O)[C@H]1O [adenosine-phosphate] ; cell viability = 96

Entry `Cc1c(N(C)CS(=O)(=O)O)c(=O)n(-c2ccccc2)n1C` ; cell viability = 102
